Where these numbers come from: patent US20210380675A1

# testTarget: T1, human IL-36α(R12), truncated (human, UniProt Q9UHA7 6-158)
# T1 chain: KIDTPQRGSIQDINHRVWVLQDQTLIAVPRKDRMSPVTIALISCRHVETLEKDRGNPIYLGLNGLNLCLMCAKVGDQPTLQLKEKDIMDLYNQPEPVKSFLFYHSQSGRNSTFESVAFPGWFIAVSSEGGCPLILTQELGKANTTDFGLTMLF
# experimentSummary: cell-based or functional assay
measurementType: IC50 of IL-8 secretion, HaCaT, 10 nM human IL-36α, FIG. 1C (nM)
Numeric answer only, unit nM assumed.

Query: Any idea what IC50 of IL-8 secretion, HaCaT, 10 nM human IL-36α, FIG. 1C was measured for 144L133B (antibody, V domains shown) VH: EVQLQQSGAELVKPGASVKLSCTASGFNIKDTYMYWVKQRPEQGLEWIGRIDPAIGTTRYDPKFQGKATLTADTSSNTAFLQLSSLTSEDTAVYYCARYDYSGSSFYFDYWGRGTTLTVSS VL: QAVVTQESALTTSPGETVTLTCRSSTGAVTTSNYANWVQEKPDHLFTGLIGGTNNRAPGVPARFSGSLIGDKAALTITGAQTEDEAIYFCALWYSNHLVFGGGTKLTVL ?
Response: 28.7
